test-target: Fuc(a1-2)[Gal(a1-4)]Gal(b1-4)GlcNAc
procedure-text: glycan array binding signal (z-score within array); higher = stronger binding
assay-context: glycan notation: IUPAC condensed, linker removed
The sample as a whole holds a higher share of the strongest signals than the screen did.
metric-name: glycan array binding signal (z-score)
Answers are plain numbers.

Some binders with known glycan array binding signal (z-score) results, for comparison:
[[record]]
binder = "SJCP1531 (Schistosoma japonicum) (protein) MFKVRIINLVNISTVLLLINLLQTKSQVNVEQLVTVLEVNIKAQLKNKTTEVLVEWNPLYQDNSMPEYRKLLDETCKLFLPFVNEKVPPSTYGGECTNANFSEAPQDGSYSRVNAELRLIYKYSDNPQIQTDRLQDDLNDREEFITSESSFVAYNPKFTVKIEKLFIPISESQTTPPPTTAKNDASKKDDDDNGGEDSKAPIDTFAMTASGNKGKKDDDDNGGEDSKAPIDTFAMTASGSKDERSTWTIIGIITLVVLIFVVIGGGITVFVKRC"
metric_name = "glycan array binding signal (z-score)"
test_result = 0.12

[[record]]
binder = "Epa22 (Candida glabrata) (protein) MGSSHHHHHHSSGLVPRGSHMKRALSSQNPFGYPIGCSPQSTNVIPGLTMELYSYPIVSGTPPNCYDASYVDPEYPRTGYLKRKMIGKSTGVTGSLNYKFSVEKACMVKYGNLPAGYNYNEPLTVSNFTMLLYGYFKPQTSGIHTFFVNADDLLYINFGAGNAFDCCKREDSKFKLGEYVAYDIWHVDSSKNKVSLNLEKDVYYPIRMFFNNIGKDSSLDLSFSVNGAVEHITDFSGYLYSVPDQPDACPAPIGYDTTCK"
metric_name = "glycan array binding signal (z-score)"
test_result = 4.5


Switching to the query record.
Using the record for CV-IIL (Chromobacterium violaceum) (protein) AQQGVFTLPARINFGVTVLVNSAATQHVEIFVDNEPRAAFSGVGTGDNNLGTKVINSGSGNVRVQITANGRQSDLVSSQLVLANKLNLAVVGSEDGTDMDYNDSIVILNWPLG , report its glycan array binding signal (z-score). 1.68
